- Tested on: HepG2 (hepatocarcinoma)
- protocol-notes: MTT cytotoxicity assay, HepG2
- measurement-context: read-out: Cytotoxicity IC50, HepG2; HepG2 cell line, MTT assay
readout-label: IC50

IC50 recorded for this compound, COC1OC(C2=CC(=O)OC2O)CC=C1CCC=C(C)CCC1=C(C)CCCC1(C)C (stereo not shown) [Compound 9, 24-O-methylmanoalide] , is 27.9 µM

###

- System: HepG2 (hepatocarcinoma)
- protocol-notes: MTT cytotoxicity assay, HepG2
- measurement-context: Homo sapiens, HepG2, read-out: Cytotoxicity IC50, HepG2, HepG2 cell line, MTT assay
log10 of IC50 for assorted compounds
Field: value | Transform: log10 | Quantity: IC50 | Unit: µM

Worked examples, 2 compounds total:
{"compound": "CC1(C)CCC[C@@]2(C)C1CC[C@]1(C)C2C[C@@H](O)[C@]2(C)C3C(=CCC12)C(=O)OC3O (stereo partly drawn) [Compound 20, 12-O-deacetyl-12-epi-scalarin]", "system": "HepG2 (hepatocarcinoma)", "readout-label": "log10 of IC50", "result-value": 1.44}
{"compound": "COC1OC(C2=CC(=O)OC2O)CC=C1CCC=C(C)CCC1=C(C)CCCC1(C)C (stereo not shown) [Compound 8, 24-O-methylmanoalide]", "system": "HepG2 (hepatocarcinoma)", "readout-label": "log10 of IC50", "result-value": 1.73}

log10 of IC50 recorded for this compound, COc1cccc2c1C(=O)c1c(O)c3c(c(O)c1C2=O)C[C@@](O)(C(=O)CO)C[C@@H]3O[C@H]1C[C@H](N)[C@H](O)[C@H](C)O1 [Doxorubicin, reference compound] , is -0.44

log10 of IC50 recorded for this compound, CC(=O)O[C@@H]1CC2[C@@]3(C)CCCC(C)(C)C3CC[C@@]2(C)C2CC=C3C(=O)OC(O)C3[C@]21C (stereo partly drawn) [Compound 19, 12-epi-scalarin] , is 1.88

log10 of IC50 recorded for this compound, CC1=C(CC/C(C)=C/CC/C(=C/CC2OC(=O)C=C2CO)CO)C(C)(C)CCC1 (stereo not shown) [Compound 13, (6Z)-neomanoalide] , is 1.95
